The reported numbers originate from the supplement of paper PMC6757056.

B1: library; a variant is named by its letters at N, in order (parent)
chain: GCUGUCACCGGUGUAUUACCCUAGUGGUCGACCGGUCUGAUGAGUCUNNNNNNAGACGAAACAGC

Variants of: B1
ASSAY_NAME: normalized RNA/DNA level with ligand (relative to sTRSVctl = 100) (log10 (% of sTRSVctl)); ligand: hypoxanthine (xanthine aptamer); higher = less ribozyme self-cleavage, higher mRNA level
APPLIED_CONDITIONS: ligand concentration (+) RNA-Seq: 5 mM, HEK293T, reporter: mCherry (pCS4076), ligand present: yes
QUANTITY_KIND: normalized RNA/DNA level with ligand (log10)
Answers are plain numbers.

Examples with answers:
> print(dat)
   variant.notation  result.number
1            UACCAA           1.92
2            GCACCC           1.86
3            CUUCCU           1.98

Okay, here is my list. What is normalized RNA/DNA level with ligand (log10) for each of these?
1. UUUGCU
2. CUUAGG
3. GUCACU

Completion:
1.95
1.94
1.98
